Property: absorbance ratio; scope: individual binders
Target: T1, biotinylated Fc-fused monkey CD137 (monkey, biotin on the AviTag)
T1 construct: also called cyCD137-Fc-BAP
T1 sequence (chain, as listed by the source limits assumed): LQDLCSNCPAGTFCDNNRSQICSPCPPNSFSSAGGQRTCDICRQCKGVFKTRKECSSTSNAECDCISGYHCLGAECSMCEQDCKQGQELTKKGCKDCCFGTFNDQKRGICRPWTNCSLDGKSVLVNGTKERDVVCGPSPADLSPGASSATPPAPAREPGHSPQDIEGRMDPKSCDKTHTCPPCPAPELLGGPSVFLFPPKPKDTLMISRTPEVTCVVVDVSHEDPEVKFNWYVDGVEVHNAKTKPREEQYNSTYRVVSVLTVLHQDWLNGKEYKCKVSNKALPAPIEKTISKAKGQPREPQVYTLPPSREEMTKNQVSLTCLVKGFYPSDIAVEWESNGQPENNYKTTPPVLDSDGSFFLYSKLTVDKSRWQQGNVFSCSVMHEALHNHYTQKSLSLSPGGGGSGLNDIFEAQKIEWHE
Assay: ELISA, 1 mM ADP, 10 ug/mL
Set-up: reference not given here
MEASURE: absorbance ratio

>>> measured("dBBAT112-P253 (antibody, human IgG1, lambda, V domains shown) VH: EVQLVESGGDLVKPGGGLRLSCAASGFTFSTYTMNWVRQAPGKGLEWVSSISSRSNYKFYADSVKGRFTISRDNAKNSLYLQMNSLRAEDTAVYYCARFGVKNNMNWVFDYWGQGTLVTVSS VL: QSALTQPPSASGSPGQTVTISCTGTSSDVGFYNYVSWYQQHPGKAPKLMIYEVSKRPSGVPDRFSGSKSGNTASLTVSGLQAEDEADYFCSSYEYIESVLFGGGTKLTVLG")
19.8
>>> measured("dBBAT015-P253 (antibody, human IgG1, lambda, V domains shown) VH: EVQLVESGGDLVKPGGGLRLSCAASGFTFSTYTMNWVRQAPGKGLEWVSSISSRSTYATYADSVKGRFTISRDNAKNSLYLQMNSLRAEDTAVYYCARYGLKNSLNWVFDYWGQGTLVTVSS VL: QSALTQPPSASGSPGQTVTISCTGTSTDVGFYNYVSWYQQHPGKAPKLMIYEVSKKPSGVPDRFSGSKSGNTASLTVSGLQAEDEADYFCSTYSYDESVAFGGGTKLTVLG")
42.9

Data origin: patent US20230272099A1
